# target_under_test: human recombinant 15-PGDH (Homo sapiens, UniProt P15428)
# protocol_summary: Recombinant 15-PGDH enzymatic inhibition assay (PGDH-Lumi, NADH signal)
# run_parameters: recombinant 15-PGDH; 15 min pre-incubation, 60 min reaction with PGE2 and NAD+, NADH signal
pIC50: −log10 of the molar value.
property: pIC50

Consider the worked cases shown below.
compound	recorded_result
CC(O)c1cc2c(-c3ccnn3C)cc(-c3cnc4nn(C)cc4c3)nc2s1 (stereo not drawn)	8.53
Cn1nnc2cc(-c3ccc4cc([C@H](O)C5CC(F)(F)C5)sc4n3)cnc21 [Compound B82R]	9.40
Cn1cc2cc(-c3ncc4cc([C@]5(O)C[C@](C)(C#N)C5)sc4n3)cnc2n1 (single isomer, unassigned) [Compound C96T]	9.35

1 = O[C@H](c1cc2ccc(-c3ccc4[nH]ncc4c3)nc2s1)C1CCOCC1 (single isomer, unassigned) [Compound B37S]
2 = Cn1cc2cc(-c3ccc4ccc([C@H](O)C5CCOCC5)cc4n3)cnc2n1 (single isomer, unassigned)
When the recorded pIC50 values are compared, which is smaller: that of 1 or that of 2 ? Use the label to indicate which entry you chose. 1

* * *

# target_under_test: human recombinant 15-PGDH (Homo sapiens)
# protocol_summary: Recombinant 15-PGDH enzymatic inhibition assay (PGDH-Lumi, NADH signal)
# run_parameters: recombinant 15-PGDH; 15 min pre-incubation, 60 min reaction with PGE2 and NAD+, NADH signal
property: IC50 (nM)

P = CCC[C@@H](O)c1cc2ccc(-c3cnc4nn(C)cc4c3)cc2s1 (single isomer, unassigned) [Compound B54R]
Q = O[C@@H](c1cc2ccc(-c3ccc4oncc4c3)nc2s1)C1CCOCC1 (single isomer, unassigned) [Compound B43R]
R = Cn1cc2cc(-c3ccc4nc([C@]5(O)C[C@@H](C(F)F)C5)sc4n3)cnc2n1 [Compound C81C]
Put the items in order so that reported IC50 rises from first to last. Form field (ranking): labels in requested order. R, P, Q
(R: 0.641 nM, P: 4.11 nM, Q: 13.8 nM)

* * *

# target_under_test: 15-PGDH in A549 cells (Homo sapiens, UniProt P15428)
# Construct: endogenous in cells
# Sequence (P15428 1-266): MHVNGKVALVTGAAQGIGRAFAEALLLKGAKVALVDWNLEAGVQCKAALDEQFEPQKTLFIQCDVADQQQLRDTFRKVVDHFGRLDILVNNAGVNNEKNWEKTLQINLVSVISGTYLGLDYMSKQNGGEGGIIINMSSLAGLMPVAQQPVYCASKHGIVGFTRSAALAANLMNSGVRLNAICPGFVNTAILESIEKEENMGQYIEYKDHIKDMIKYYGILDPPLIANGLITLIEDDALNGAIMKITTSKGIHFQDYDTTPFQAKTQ
# protocol_summary: A549 cellular 15-PGDH assay (PGE2 accumulation, HTRF)
# run_parameters: interleukin-stimulated, inhibitor 24 hrs, PGE2 by competitive HTRF, read-out: A549 Cell Assay IC50
property: IC50 (nM)

Consider the worked cases shown below.
compound	target_under_test	property	unit_symbol	recorded_result
Cn1nc2cc(-c3ccc4cc([C@H](O)C5CCOCC5)sc4n3)cnc2n1 (single isomer, unassigned) [Compound B39R]	15-PGDH in A549 cells (Homo sapiens, UniProt P15428)	IC50	nM	2.37
OC1(c2cc3ccc(-c4ccc5oncc5c4)nc3s2)CC(F)(F)C1 [Compound C50]	15-PGDH in A549 cells (Homo sapiens, UniProt P15428)	IC50	nM	11.1
Cn1cnc(-c2ccc3cc([C@H](O)C4CC(F)(F)C4)sc3n2)cc1=O (single isomer, unassigned) [Compound B49R]	15-PGDH in A549 cells (Homo sapiens, UniProt P15428)	IC50	nM	0.723
Cn1cc2cc(-c3ccc4nc(C5(O)CC(C)(C)C5)sc4n3)cnc2n1 [Compound C68]	15-PGDH in A549 cells (Homo sapiens, UniProt P15428)	IC50	nM	0.361
Cn1cc2cc(-c3ccc4cc([C@@H](O)[C@@H]5CCC5(F)F)sc4n3)cnc2n1 (single isomer, unassigned) [Compound B94SS]	15-PGDH in A549 cells (Homo sapiens, UniProt P15428)	IC50	nM	3.63
Cn1cc2cc(-c3ccc4cc([C@H](O)[C@H]5C[C@H](C(F)(F)F)C5)sc4n3)cnc2n1 (single isomer, unassigned) [Compound B84RT]	15-PGDH in A549 cells (Homo sapiens, UniProt P15428)	IC50	nM	0.515

a = Cn1ncc2cc(-c3ccc4cc([C@H](O)C5CCOCC5)sc4n3)cnc21 (single isomer, unassigned) [Compound B35R]
b = Cn1cc2cc(-c3ncc4cc([C@]5(O)C[C@@](C)(C#N)C5)sc4n3)cnc2n1 (single isomer, unassigned) [Compound C96C]
When the recorded IC50 values are compared, which is smaller: that of a or that of b ? Use the label to indicate which entry you chose. b

1 = Cn1nnc2cc(-c3ccc4cc([C@]5(O)C[C@@H](C(F)(F)F)C5)sc4n3)cnc21 [Compound C79C]
2 = Cn1cc2cc(-c3ncc4cc([C@]5(O)C[C@@H](C(F)F)C5)sc4n3)cnc2n1 [Compound C80C]
When the recorded IC50 values are compared, which is smaller: that of 1 or that of 2 ? Use the label to indicate which entry you chose. 1
(1: 0.832 nM, 2: 1.26 nM)

* * *

# target_under_test: 15-PGDH in A549 cells (Homo sapiens, UniProt P15428)
# Construct: endogenous in cells
# protocol_summary: A549 cellular 15-PGDH assay (PGE2 accumulation, HTRF)
# run_parameters: interleukin-stimulated, inhibitor 24 hrs, PGE2 by competitive HTRF, read-out: A549 Cell Assay IC50
pIC50: −log10 of the molar value.
property: pIC50

molecule	pIC50
COCC(O)c1cc2ccc(-c3cnc4nn(C)cc4c3)nc2s1 (centres unmarked)	8.13
Cn1cc2cc(-c3ccc4cc(C(O)C(F)(F)F)sc4n3)cnc2n1 (centres unmarked)	8.85
Cn1cc2cc(-c3ncc4cc([C@]5(O)C[C@@H](OC(F)(F)F)C5)sc4n3)cnc2n1 [Compound C100C]	9.17
Cn1nnc2cc(-c3ncc4cc([C@]5(O)C[C@@H](C(F)(F)F)C5)sc4n3)cnc21 [Compound C95C]	8.01
Cn1cc2cc(-c3ccc4sc([C@@H](O)C5CC(F)(F)C5)nc4n3)cnc2n1 (single isomer, unassigned) [Compound B74S]	8.35
Cn1cc2cc(-c3ccc4c(N)c([C@@H](O)C5CC(F)(F)C5)sc4n3)cnc2n1 (single isomer, unassigned) [Compound B95S]	8.02

a = Cn1cc2cc(-c3ccc4cc(C(O)C5CCCC5)sc4c3)cnc2n1 (centres unmarked)
b = O[C@]1(c2cc3cnc(-c4ccnnc4)nc3s2)C[C@H](C(F)(F)F)C1 [Compound C126C]
Parameter check: reported pIC50 is higher for which label, a or b ? Use the label to indicate which entry you chose. a

* * *

# target_under_test: human recombinant 15-PGDH (Homo sapiens, UniProt P15428)
# protocol_summary: Recombinant 15-PGDH enzymatic inhibition assay (PGDH-Lumi, NADH signal)
# run_parameters: recombinant 15-PGDH; 15 min pre-incubation, 60 min reaction with PGE2 and NAD+, NADH signal
pIC50: −log10 of the molar value.
property: pIC50

Consider the worked cases shown below.
compound	pIC50
[2H][C@](O)(c1cc2ccc(-c3cnc4nn(C)cc4c3)nc2s1)C1CC(F)(F)C1 (single isomer, unassigned) [Compound B79R]	9.40
O[C@H](c1cc2ccc(-c3ccc4oncc4c3)nc2s1)C1CCOCC1 (single isomer, unassigned) [Compound B43S]	6.20
CCCC(O)c1cc2ccc(-c3cnc4nn(C)cc4c3)nc2s1 (stereo not shown)	9.40
Cn1cc2cc(-c3ccc4cc([C@@H](O)C5(C)CC(F)(F)C5)sc4n3)cnc2n1 (single isomer, unassigned) [Compound B86S]	6.54
Cn1cc2cc(-c3ccc4c(Cl)c(C5(O)CC(C)(C)C5)sc4n3)cnc2n1	8.61

I = Cn1cc2cc(-c3ncc4sc([C@]5(O)C[C@@H](C(F)F)C5)cc4n3)cnc2n1 [Compound C89C]
II = Cn1cc2cc(-c3ccc4cc([C@@H](O)C5CC(F)(F)C5)sc4n3)cnc2n1 (single isomer, unassigned) [Compound B30S]
III = CO[C@H]1C[C@](O)(c2sc3nc(-c4cnc5nn(C)cc5c4)ccc3c2Cl)C1 [Compound C69C]
IV = Cn1cc2cc(-c3ccc4cc(C(O)C5CCOCC5)sc4n3)cnc2n1 (stereo not shown)
Reorder the items by pIC50, least to greatest. Form field (ranking): labels in requested order. I, III, IV, II

* * *

# target_under_test: human recombinant 15-PGDH (Homo sapiens, UniProt P15428)
# Sequence (P15428 1-266): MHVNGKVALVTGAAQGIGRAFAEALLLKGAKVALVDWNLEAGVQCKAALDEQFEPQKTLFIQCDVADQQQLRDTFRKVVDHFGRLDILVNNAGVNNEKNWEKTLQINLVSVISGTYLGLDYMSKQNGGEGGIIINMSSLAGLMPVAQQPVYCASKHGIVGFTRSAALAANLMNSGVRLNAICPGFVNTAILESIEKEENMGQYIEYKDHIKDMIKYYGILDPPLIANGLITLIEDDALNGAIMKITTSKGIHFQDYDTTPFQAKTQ
# protocol_summary: Recombinant 15-PGDH enzymatic inhibition assay (PGDH-Lumi, NADH signal)
# Format: biochemical
# run_parameters: recombinant 15-PGDH; 15 min pre-incubation, 60 min reaction with PGE2 and NAD+, NADH signal
property: IC50 (nM)

Consider the worked cases shown below.
compound	target_under_test	property	recorded_result
CCC(O)c1cc2ccc(-c3cnc4nn(C)cc4c3)nc2s1 (stereo not drawn)	human recombinant 15-PGDH (Homo sapiens, UniProt P15428)	IC50	0.513
CO[C@]1(C)C[C@](O)(c2nc3ccc(-c4cnc5nn(C)cc5c4)nc3s2)C1 (single isomer, unassigned) [Compound C125T]	human recombinant 15-PGDH (Homo sapiens, UniProt P15428)	IC50	0.75
COC[C@H]1C[C@](O)(c2cc3cnc(-c4cnc5nn(C)cc5c4)nc3s2)C1 [Compound C119C]	human recombinant 15-PGDH (Homo sapiens, UniProt P15428)	IC50	2.8
Cc1cc2[nH]ncc2cc1-c1ccc2cc([C@H](O)C3CCOCC3)sc2n1 (single isomer, unassigned) [Compound B38R]	human recombinant 15-PGDH (Homo sapiens, UniProt P15428)	IC50	93
Cn1cc2cc(-c3ccc4cc([C@H](O)C(F)(F)F)sc4n3)cnc2n1 (single isomer, unassigned) [Compound B23R]	human recombinant 15-PGDH (Homo sapiens, UniProt P15428)	IC50	0.422

A = O[C@@H](c1cc2ccc(-c3cnc4[nH]ncc4c3)nc2s1)C1CC(F)(F)C1 (single isomer, unassigned) [Compound B47R]
B = CN1CCCC(C(O)c2cc3ccc(-c4cnc5nn(C)cc5c4)nc3s2)C1 (stereo not drawn)
C = Cn1cc2cc(-c3ccc4cc([C@H](O)C5COC5)sc4n3)cnc2n1 (single isomer, unassigned) [Compound B28R]
D = CN1CC(O)(c2cc3ccc(-c4cnc5nn(C)cc5c4)nc3s2)C1
Hello, I need these entries ordered by IC50, highest reading first. Thanks! Form field (ranking): labels in requested order. B, D, C, A
(B: 15 nM, D: 7.27 nM, C: 0.424 nM, A: 0.21 nM)

1 = Cn1cc2cc(-c3cc(-c4ccnn4C)c4cc(C(C)(O)C5CCC5)sc4n3)cnc2n1 (stereo not drawn)
2 = Cn1cc2cc(-c3ccc4sc([C@H](O)C5CC(F)(F)C5)nc4n3)cnc2n1 (single isomer, unassigned) [Compound B74R]
When the recorded IC50 values are compared, which is smaller: that of 1 or that of 2 ? Use the label to indicate which entry you chose. 1
(1: 0.543 nM, 2: 4.76 nM)
